We begin with a simple list: items and their reported koff.
- target-entity: T1, Human GPC3 (2119-GP; R&D systems), biotinylated (human, UniProt P51654 25-559, biotinylated using standard NHS chemistry)
- T1 construct: Bought protein; also called human Glypican-3
- T1 sequence (P51654 25-559 limits assumed): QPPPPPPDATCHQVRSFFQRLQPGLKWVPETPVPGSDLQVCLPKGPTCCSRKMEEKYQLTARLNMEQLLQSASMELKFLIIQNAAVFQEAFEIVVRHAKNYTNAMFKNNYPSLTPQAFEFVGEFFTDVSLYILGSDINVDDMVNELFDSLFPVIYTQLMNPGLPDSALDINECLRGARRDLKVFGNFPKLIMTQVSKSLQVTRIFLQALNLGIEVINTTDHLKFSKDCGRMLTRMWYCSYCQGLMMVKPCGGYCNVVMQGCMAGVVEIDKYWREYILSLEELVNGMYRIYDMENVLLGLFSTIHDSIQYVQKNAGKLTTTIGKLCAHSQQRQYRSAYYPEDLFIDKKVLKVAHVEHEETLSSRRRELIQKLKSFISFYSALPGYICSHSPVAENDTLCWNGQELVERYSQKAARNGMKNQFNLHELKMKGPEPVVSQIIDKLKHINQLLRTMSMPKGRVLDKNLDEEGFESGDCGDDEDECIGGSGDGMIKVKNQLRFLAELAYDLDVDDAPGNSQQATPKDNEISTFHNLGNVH
- experimental-protocol: SPR (Biacore T200), biotinylated GPC3 captured on chip, mutein in flow
readout-kind: koff (s⁻¹)

{"binder": "lipocalin mutein of SEQ ID NO: 14 (designed binder, hNGAL (Lcn2) mutein; also called optimized GPC3 specific lipocalin mutein) QDSTSDLIPAPPLSKVPLQQNFQDNQFQGKWYVVGRAGNVGLREDKDPPKMWATIYELKEDKSYDVTNVRFAGKKVKYTIGTFVPGSQPGEFTLGQIKSEPGNTATLVRVVSTNYNQHAMVFFKEVYQNREIFFITLYGRTKELTSELKENFIRFSKSLGLPENHIVFPVPIDQAIDGSAWSHPQFEK", "experimental-value": 0.002}
{"binder": "lipocalin mutein of SEQ ID NO: 15 (designed binder, hNGAL (Lcn2) mutein; also called optimized GPC3 specific lipocalin mutein) QDSTSDLIPAPPLSKVPLQQNFQDNQFQGKWYVVGRAGNVGLREDKDPPKMRATIYELKEDKSYDVTGVRFGEKKIKYSIGTFVPGSQPGEFTLGQIKSQPGDTANLVRVVSTNYNQHAMVFFKEVYQNREIFFIILYGRTKELTSELKENFIRFSKSLGLPENHIVFPVPIDQAIDGSAWSHPQFEK", "experimental-value": "4.9e-05"}
{"binder": "lipocalin mutein of SEQ ID NO: 10 (designed binder, hNGAL (Lcn2) mutein; also called optimized GPC3 specific lipocalin mutein) QDSTSDLIPAPPLSKVPLQQNFQDNQFQGKWYVVGRAGNGALREDKDPPKMWATIYELKEDKSYDVTNVRFARKKCVYSIGTFVPGSQPGEFTLGPIKSEPGNTASLVRVVSTNYNQHAMVFFKEVYQNREIFFIILYGRTKELTSELKENFIRFSKSLGLPENHIVFPVPIDQCIDGSAWSHPQFEK", "experimental-value": 0.00012}
